# test protocol: Pharmacokinetics in male SD rats after intravenous and oral administration
# Format: in vivo
# measurement context: rat, plasma, po, 5 mg/kg
observed property: AUC(0-t) (ng·h/mL)

(P) COC(=O)Nc1c(N)nc(-c2nn(Cc3ccccc3F)c3cc(F)ccc23)nc1N [Example 5]
(Q) COC(=O)N(C)c1c(N)nc(-c2nn(Cc3ccccc3F)c3c(F)cc(F)cc23)nc1N [Example 2]
(R) Nc1nc(-c2nn(Cc3ccccc3F)c3c(F)cccc23)nc(N)c1N1CCOC1=O [Example 15]
Please give the order of these molecules when sorted by AUC(0-t), largest value leading. To answer, arrange all of the labels according to the requested order.
P, Q, R

These measurements were taken from patent US11242335B2.
